Source: ChEMBL document CHEMBL4330138

Measured IC50 accompanies every entry in the list below.
# Tested on: Sodium channel protein type 5 subunit alpha (Homo sapiens, UniProt Q14524)
# Sequence (Q14524 whole entry): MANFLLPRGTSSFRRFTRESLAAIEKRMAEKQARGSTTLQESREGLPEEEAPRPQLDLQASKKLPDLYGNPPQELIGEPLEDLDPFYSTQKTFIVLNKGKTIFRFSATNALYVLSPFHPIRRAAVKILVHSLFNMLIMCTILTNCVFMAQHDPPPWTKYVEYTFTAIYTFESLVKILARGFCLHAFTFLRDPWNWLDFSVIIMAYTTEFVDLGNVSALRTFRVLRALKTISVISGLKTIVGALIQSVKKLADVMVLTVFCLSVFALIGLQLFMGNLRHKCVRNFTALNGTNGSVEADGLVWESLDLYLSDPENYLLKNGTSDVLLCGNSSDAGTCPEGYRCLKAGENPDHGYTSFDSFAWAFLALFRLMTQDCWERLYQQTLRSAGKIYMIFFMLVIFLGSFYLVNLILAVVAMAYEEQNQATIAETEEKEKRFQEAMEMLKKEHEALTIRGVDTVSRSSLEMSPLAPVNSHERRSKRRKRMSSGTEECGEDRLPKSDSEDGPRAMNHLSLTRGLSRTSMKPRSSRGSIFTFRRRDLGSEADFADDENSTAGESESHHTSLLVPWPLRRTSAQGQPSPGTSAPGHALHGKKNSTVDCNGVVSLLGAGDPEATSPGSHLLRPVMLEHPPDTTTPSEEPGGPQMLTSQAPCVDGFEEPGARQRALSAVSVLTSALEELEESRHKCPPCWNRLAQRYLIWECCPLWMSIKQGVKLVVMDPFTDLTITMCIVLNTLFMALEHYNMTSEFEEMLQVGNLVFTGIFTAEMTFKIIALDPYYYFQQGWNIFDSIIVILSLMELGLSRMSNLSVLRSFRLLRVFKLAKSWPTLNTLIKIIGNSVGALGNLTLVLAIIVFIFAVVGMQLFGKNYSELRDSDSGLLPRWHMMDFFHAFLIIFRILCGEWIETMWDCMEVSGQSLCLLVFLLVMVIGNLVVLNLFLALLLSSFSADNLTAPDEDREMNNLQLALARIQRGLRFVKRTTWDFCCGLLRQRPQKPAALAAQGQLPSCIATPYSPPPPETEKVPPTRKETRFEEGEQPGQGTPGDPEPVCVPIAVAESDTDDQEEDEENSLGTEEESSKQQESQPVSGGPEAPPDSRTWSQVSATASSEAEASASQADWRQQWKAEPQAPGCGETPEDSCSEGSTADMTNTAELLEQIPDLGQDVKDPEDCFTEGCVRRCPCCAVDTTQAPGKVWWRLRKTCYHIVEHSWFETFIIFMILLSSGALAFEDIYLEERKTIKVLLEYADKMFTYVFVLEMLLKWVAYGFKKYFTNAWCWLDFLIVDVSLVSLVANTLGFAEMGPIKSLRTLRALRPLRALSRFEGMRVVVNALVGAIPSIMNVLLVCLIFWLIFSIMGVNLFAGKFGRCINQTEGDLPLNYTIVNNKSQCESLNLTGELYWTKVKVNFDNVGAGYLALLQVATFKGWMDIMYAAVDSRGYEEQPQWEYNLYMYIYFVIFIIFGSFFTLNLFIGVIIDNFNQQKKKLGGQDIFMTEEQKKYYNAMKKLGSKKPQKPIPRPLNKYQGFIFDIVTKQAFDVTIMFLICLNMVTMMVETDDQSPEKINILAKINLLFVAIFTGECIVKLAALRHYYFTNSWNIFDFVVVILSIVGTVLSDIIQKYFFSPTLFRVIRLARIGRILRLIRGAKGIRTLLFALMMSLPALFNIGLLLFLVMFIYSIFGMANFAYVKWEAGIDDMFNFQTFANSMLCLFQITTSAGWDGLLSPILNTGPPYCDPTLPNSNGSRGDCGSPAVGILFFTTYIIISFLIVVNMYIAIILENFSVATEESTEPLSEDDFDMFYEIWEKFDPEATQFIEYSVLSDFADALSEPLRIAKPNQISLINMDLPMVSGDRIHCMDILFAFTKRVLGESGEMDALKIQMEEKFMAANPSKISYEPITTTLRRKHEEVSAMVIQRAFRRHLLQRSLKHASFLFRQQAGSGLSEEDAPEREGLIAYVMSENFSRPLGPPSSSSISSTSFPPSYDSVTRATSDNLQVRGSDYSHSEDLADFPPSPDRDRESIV
# Assay remarks: Inhibition of human Nav1.5 at -50 mV holding potential by cell-based IonWorks barracuda automated electrophysiology method

Worked cases, IC50 given:
>>> assay_result("Cn1cc(C2=CCN(C(=O)OC(C)(C)C)CC2)c2ccc(C(=O)NS(=O)(=O)C3CC3)cc21")
"> 30 µM"
>>> assay_result("Cn1cc(C(C)(C)C)c2ccc(C(=O)NS(=O)(=O)C3CC3)cc21")
"> 30 µM"
>>> assay_result("CCC(c1cn(C)c2cc(C(=O)NS(=O)(=O)C3CC3)ccc12)C(C)(C)C (stereo not given)")
"> 30 µM"
>>> assay_result("C[C@@H]1CC[C@@H](c2cn(C)c3cc(C(=O)NS(=O)(=O)C4CC4)ccc23)C1")
"> 30 µM"

Let us examine a further case.
Cc1cn(C2C=CCCC2)c2ccc(C(=O)NS(=O)(=O)C3CC3)cc12 (stereo not given) has a reported IC50 of 0.46 µM
